Assay: Cytotoxicity on NHDF cells in the anti-HCMV cytopathogenicity test
Format: cell-based
Settings: NHDF cells (human prepuce fibroblasts), visual assessment, concentration at which no visible cytostatic effects are evident
Counter-ions that a name gives are not always drawn.
reported-metric: CC50 at 6 days (µM)
Your answer is read as µM, so omit the unit and give the number.

Some compounds with recorded CC50 at 6 days:
# compound, unit-string, CC50 at 6 days
rows = [
    ("COc1ccc(C(F)(F)F)cc1N1C(C2CCN(c3cccc(C)c3)CC2)=Nc2c(F)cccc2C1CC(=O)O (stereo not shown) [Example 3]", "µM", 31),
    ("COc1ccc(C(F)(F)F)cc1N1C(C2CCN(c3ccc(F)c(C)c3)CC2)=Nc2c(F)cccc2C1CC(=O)O (stereo not shown) [Example 2, hydrochloride]", "µM", 31),
    ("COc1ccc(C(F)(F)F)cc1N1C(C2CCN(c3ccc(F)c(C)c3)CC2)=Nc2c(F)cccc2C1CC(=O)O (racemic) [Example 1, hydrochloride]", "µM", 24),
]

Here is the next item to consider.
Summary for this compound, COc1ccc(C(F)(F)F)cc1N1C(C2CCN(c3ccc(F)cc3)CC2)=Nc2c(F)cccc2C1CC(=O)O (stereo not shown) [Example 4] : CC50 at 6 days is 36

Reference source for all entries: patent US8314113B2
